system: L1210 leukemia ip in BDF1 mice, survival T/C; assay: NCI In Vivo Anticancer Drug Screen. Data for tumor model L1210 Leukemia (intraperitoneal) in B6D2F1 (BDF1) mice; details: endpoint: mean survival time; dose: 200.0 mg/kg/injection; schedule: Q01DX001 (ip); vehicle: carboxymethylcellulose (CMC); higher = longer survival
Toxic doses and inconclusive results are not listed.
Below, each entry is listed with its recorded T/C.

Illustrative cases are given below, each with its answer.
{"molecule": "C=C1C[C@]23C[C@@]1(O)CC[C@H]2[C@@]12C=C[C@H](O)[C@@](C)(C(=O)O1)[C@H]2[C@@H]3C(=O)O", "experimental-system": "L1210 leukemia ip in BDF1 mice, survival T/C", "T/C": "96 % of control"}
{"molecule": "c1ccc(C2=Nc3ccccc3N=C3CCCC32)cc1 (stereo unspecified)", "experimental-system": "L1210 leukemia ip in BDF1 mice, survival T/C", "T/C": "100 % of control"}
{"molecule": "BrC1CC2C3CCC(C3)C2C1Br (stereo unspecified)", "experimental-system": "L1210 leukemia ip in BDF1 mice, survival T/C", "T/C": "93 % of control"}
{"molecule": "COc1ccccc1NP1(=O)OCC(C)([N+](=O)[O-])CO1 (stereo unspecified)", "experimental-system": "L1210 leukemia ip in BDF1 mice, survival T/C", "T/C": "104 % of control"}
{"molecule": "Cc1ccc(-c2csc(NC(=O)CC(=O)N/N=C/c3ccc(N(CCCl)CCCl)cc3C)n2)cc1", "experimental-system": "L1210 leukemia ip in BDF1 mice, survival T/C", "T/C": "88 % of control"}
{"molecule": "CCOP(=O)(Nc1cc2c(cc1Cl)-c1ccccc1C2=O)OCC", "experimental-system": "L1210 leukemia ip in BDF1 mice, survival T/C", "T/C": "89 % of control"}
{"molecule": "Cc1ccc(S(=O)(=O)N(c2cc(C)ccc2C)c2ccccc2[N+](=O)[O-])cc1", "experimental-system": "L1210 leukemia ip in BDF1 mice, survival T/C", "T/C": "96 % of control"}
{"molecule": "CC(C)c1ccc(/C=C/C(=O)O)cc1", "experimental-system": "L1210 leukemia ip in BDF1 mice, survival T/C", "T/C": "92 % of control"}
{"molecule": "CCCc1cc(=O)c2ccccc2n1COC(C)=O", "experimental-system": "L1210 leukemia ip in BDF1 mice, survival T/C", "T/C": "113 % of control"}
{"molecule": "O=C1CCC(=O)N1Nc1ccccc1", "experimental-system": "L1210 leukemia ip in BDF1 mice, survival T/C", "T/C": "102 % of control"}

Let's switch to this molecule now.
Task: Give L1210 leukemia ip in BDF1 mice, survival T/C T/C for N#CCc1ccc(-c2ccccc2)cc1
Result: 100 % of control

###

Test system: L1210 leukemia ip in BDF1 mice, survival T/C
Test: NCI In Vivo Anticancer Drug Screen. Data for tumor model L1210 Leukemia (intraperitoneal) in B6D2F1 (BDF1) mice
Conditions: endpoint: mean survival time; dose: 400.0 mg/kg/injection; schedule: Q01DX001 (ip); vehicle: saline; higher = longer survival
Description: The antitumor activity of compounds was measured in mice bearing transplantable tumors. Survival or tumor size were measured and the results are expressed as the measurement made in the treated group (T) divided by the measurement made in the vehicle treated control group (C). The tumor model used in this assay is L1210 Leukemia (intraperitoneal) in B6D2F1 (BDF1) mice
Toxic doses and inconclusive results are not listed.
property-measured: T/C

Reference set, count: 5
{"compound": "CCCCOC(=O)c1ccc(O)c(OC)c1", "property-measured": "T/C", "result": "102 % of control"}
{"compound": "COc1ccc2nc(-c3ccc(C)cc3)cc(C(=O)O)c2c1", "property-measured": "T/C", "result": "88 % of control"}
{"compound": "CCCC[CH2][Sn](=[O])[CH2]CCCC", "property-measured": "T/C", "result": "98 % of control"}
{"compound": "CC(=O)NC1C(O)OC(COC(c2ccccc2)(c2ccccc2)c2ccccc2)C(O)C1O (configuration not stated)", "property-measured": "T/C", "result": "104 % of control"}
{"compound": "NC(=S)N=Nc1ccc(O)cc1", "property-measured": "T/C", "result": "109 % of control"}

Task: Which T/C value is on record for CNC(=O)Nc1nc2ccc([N+](=O)[O-])cc2[nH]1 ?
Result: 97 % of control

Task: GET /values?readout=T/C&item= Cc1ccc(S(=O)(=O)Nc2ccccc2O)cc1
Result: 98 % of control

###

system: L1210 leukemia ip in BDF1 mice, survival T/C; experiment: NCI In Vivo Anticancer Drug Screen. Data for tumor model L1210 Leukemia (intraperitoneal) in B6D2F1 (BDF1) mice; settings: endpoint: mean survival time; dose: 50.0 mg/kg/injection; schedule: Q01DX009 (ip); vehicle: Klucel (hydroxypropylcellulose) (HPC); higher = longer survival
Inconclusive results and toxic doses are left out.
Overview of recorded T/C for various molecules

Would you please look over these solved cases?
{"molecule": "O=C1C(=Cc2ccc([N+](=O)[O-])cc2)C(=O)c2ccccc21", "T/C": "98 % of control"}
{"molecule": "NC(=O)N/N=C1/CCN2CCCc3cccc1c32", "T/C": "93 % of control"}
{"molecule": "CCOC(=O)c1ccc(N=Cc2ccccc2O)cc1", "T/C": "98 % of control"}
{"molecule": "Cc1ccc(NC(=O)Nc2cccc(O)c2)c([N+](=O)[O-])c1", "T/C": "98 % of control"}
{"molecule": "O=NN(CC(=O)O)c1cccnc1", "T/C": "101 % of control"}
{"molecule": "CC/C(=C\\c1ccccc1)[N+](=O)[O-]", "T/C": "98 % of control"}

Task: Query (molecule): CC[n+]1c(C)sc2cc3c(cc21)OCO3 ; field requested: T/C
Result: 103 % of control

Task: Query: T/C; subject: COc1cccc(/C=C/[N+](=O)[O-])c1
Result: 97 % of control

Task: Which T/C value is on record for CC1(C)CC(C)(c2ccccc2)c2ccccc21 (configuration not stated) ?
Result: 101 % of control

Task: Item under review: COC(=O)c1ccccc1NC(=O)Nc1ccc(F)c([N+](=O)[O-])c1 . Reported T/C?
Result: 103 % of control

Task: What value of measured T/C is listed for O=[N+]([O-])/C=C/C(Cl)(Cl)Cl ?
Result: 95 % of control

Task: What measured T/C goes with O=C1C(C2(O)C(=O)Nc3ccccc32)CCCC1C1(O)C(=O)Nc2ccccc21 (configuration not stated) ?
Result: 97 % of control

###

The molecules listed here are annotated with their T/C.
tested on: L1210 leukemia ip in BDF1 mice, survival T/C; assay: NCI In Vivo Anticancer Drug Screen. Data for tumor model L1210 Leukemia (intraperitoneal) in B6D2F1 (BDF1) mice; conditions: endpoint: mean survival time; dose: 25.0 mg/kg/injection; schedule: Q04DX003 (ip); vehicle: saline with Tween-80; higher = longer survival
Toxic doses and inconclusive results are not listed.

{"molecule": "CN(C)C(c1ccccc1)C(CBr)C(=O)c1ccc(Br)cc1 (stereo not given)", "T/C": "102 % of control"}

Shift focus to the following entry.
Task: If you can, please state the reported T/C value of CN(C)NC(=O)C(c1ccccc1)c1ccccc1 .
Result: 100 % of control

###

system: L1210 leukemia ip in BDF1 mice, survival T/C; assay: NCI In Vivo Anticancer Drug Screen. Data for tumor model L1210 Leukemia (intraperitoneal) in B6D2F1 (BDF1) mice; settings: endpoint: mean survival time; dose: 100.0 mg/kg/injection; schedule: Q04DX003 (ip); vehicle: saline; higher = longer survival
Inconclusive results and toxic doses are left out.
Quick reference for T/C among some compounds

{"compound": "C[n+]1ccccc1C(=O)O", "property-measured": "T/C", "result": "97 % of control"}

Task: Return reported T/C; argument: O=C1CCSCC1
Result: 100 % of control

Task: Give its T/C value. Item: CCCCC[n+]1ccc(C(N)=O)cc1
Result: 105 % of control

Task: // T/C lookup, key: NC(=O)C(Br)CBr (stereo not given)
Result: 101 % of control

Task: Item OC1C2CCN(CC2)C1CNC12CC3CC(CC(C3)C1)C2 (stereo not given) has what recorded T/C?
Result: 97 % of control

Task: If you can, please state the reported T/C value of N#CC(=N)N1CCCCC1 .
Result: 98 % of control

Task: May I ask what T/C has been recorded for COC(=O)C(C)O (stereo not given) ?
Result: 97 % of control

Task: GET /values?readout=T/C&item= CCN1CCC(CN2c3ccccc3Sc3ccccc32)C1 (stereo not given)
Result: 112 % of control

Task: Please report the recorded T/C for CN(C)[C@@H]1C(=O)C(C(=O)NCNCCCC(=O)O)=C(O)[C@@]2(O)C(=O)C3=C(O)c4c(O)cccc4[C@@](C)(O)[C@H]3C[C@@H]12 .
Result: 105 % of control

Task: Can you share its T/C? I mean this compound: OCCN1CCN(CCCN2c3ccccc3CCc3ccccc32)CC1
Result: 104 % of control
